pIC50 values by entry
# system tested: C-terminal truncated core protein (HBV core dimer, BODIPY-FL labelled) (UniProt P03146)
# Construct: fused on or other part: One added cysteine at position 150, labelled with BODIPY-FL maleimide; The C-terminal arginine-rich domain is absent
# Sequence (P03146 whole entry, the tested form may be a part): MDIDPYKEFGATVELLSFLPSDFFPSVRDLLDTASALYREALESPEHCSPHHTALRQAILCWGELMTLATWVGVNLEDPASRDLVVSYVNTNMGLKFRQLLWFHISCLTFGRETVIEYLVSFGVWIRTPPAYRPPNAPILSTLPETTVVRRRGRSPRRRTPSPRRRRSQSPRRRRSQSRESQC
# protocol notes: Biochemical capsid assembly assay (fluorescence quenching)
pIC50: −log10 of the molar value.

Below are worked cases with known answers.
C[C@@H]1CN(C(=O)C(=O)NC(C)(C)C)[C@@H](C)CN1C(=O)c1cc2ccccc2[nH]1
> 5.30
Cc1c(F)ccc2[nH]c(C(=O)N3CCN(C(=O)C(=O)NC(C)(C)C)CC3)cc12
5.00 to 5.30
CCCCNC(=O)C(=O)N1CCN(C(=O)c2cc3c(F)cccc3[nH]2)CC1
> 5.30
O=C(NC1CCCC1)C(=O)N1CCN(C(=O)c2cc3cccc(Br)c3[nH]2)CC1
5.00 to 5.30
O=C(NCCCCO)C(=O)N1CCN(C(=O)c2cc3ccccc3[nH]2)CC1
> 5.30
O=C(NCC1(O)CCC1)C(=O)N1CCN(C(=O)c2cc3ccccc3[nH]2)CC1
> 5.30

Problem: What does the data say about its pIC50? Entry: C[C@@H](O)CNC(=O)C(=O)N1CCN(C(=O)c2cc3ccccc3[nH]2)CC1
Solution: 5.00 to 5.30

Problem: What would you report for CCCCNC(=O)C(=O)N1CCN(C(=O)c2cc3c(F)cc(F)cc3[nH]2)CC1 ?
Solution: > 5.30
